Molecular target: Acetyl-CoA carboxylase 1 (Homo sapiens)
Parameter Measured: IC50 (nM)

>>> print(df.to_string())
                    structure_smiles_string  quantitative_result
0  Cn1ncc2c(Cl)cc(C(=O)N3CCC4(CC3)CC(=O)c3nc(C(C)(C)C)sc3C4)cc21                 22.9

Entry source: BindingDB's records for patent US20240109915
